Test system: NCI-H295R
Experiment: area under concentration-response curve (viability) (AUC (a.u.)); higher = less active
Settings: 48 h
PROPERTY NAME: area under concentration-response curve
Numbers only.

Here is how some compounds turned out for area under concentration-response curve.
1. CCC(C)N1\N=C/N(C1=O)C2=CC=C(C=C2)N3CCN(CC3)C4=CC=C(OC[C@H]5CO[C@@](C[N]6C=NC=N6)(O5)C7=CC=C(Cl)C=C7Cl)C=C4 (some centres undefined)	574
2. CCC(=O)NCC[C@@H]1CCc2ccc3c(c21)CCO3	531
3. C=Cc1cc(O)cc2nc(-c3ccc(O)c(F)c3)oc12	550
4. Cn1c(CCCCCCC(=O)NO)nc2cc(N(CCCl)CCCl)ccc21	497
5. C[C@]12CC[C@H]3[C@@H](CCC/4=C/C(=O)CC[C@]34C)[C@@H]1CC[C@@H]2OC(=O)CCC5CCCC5	569

I'm hoping you can list area under concentration-response curve for every compound here, please.
1. CC1SC/2=C(C(O)=O)/C(=O)C3=CC(=C(C=C3N12)N4CCN(CC4)C\C5=C(C)\OC(=O)O5)F (centres undefined)
2. NC1=C(Cl)C(=CC=N1)OC2=C(F)C=C(NC(=O)\C3=C\N\C=C(C3=O)\C4=CC=C(F)C=C4)C=C2
3. S=C(NCc1ccc2c(c1)OCO2)N1CCN(c2ncnc3c2oc2ccccc23)CC1
4. OC[C@H]1OC(O)C[C@@H](O)[C@@H]1O (some centres undefined)

stdout:
1: 565; 2: 490; 3: 483; 4: 607

* * *

Test system: CU-ACC1
Test: AC50 viability; higher = less potent
Details: 48 h
Mark class 1 only for AC50 viability values smaller than 20 µM; exact matches and larger values are class 0.

1. CN1CCN(c2ccc3nc(-c4cc(C(C)(C)C)c(OCCCC(=O)NCCCN=[N+]=[N-])c(C(C)(C)C)c4)[nH]c3c2)CC1	class 1

Consider now this further molecule.
stdin: Consider CC(O)c1cc(C(=O)N[C@@H](C)Cn2ccc(-c3ccc(C#N)c(Cl)c3)n2)n[nH]1 (stereo partly drawn) . Does its AC50 viability lie strictly below 20 µM?
stdout: class 0

* * *

Can you tell me log10(AC50 viability) for the items I'm about to list?
System: NCI-H295R
Assay: AC50 viability; higher = less potent
Conditions: 48 h
// units: µM (pre-log); metric: AC50 viability; scale: log10

Some compounds with known log10(AC50 viability) results, for comparison:
1) COc1cc([C@@H]2c3cc4c(cc3[C@H](O)[C@H]3COC(=O)[C@H]23)OCO4)cc(OC)c1OC	-1.68
2) C=CC(=O)Nc1cccc(Oc2nc(Nc3ccc(N4CCN(C)CC4)cc3)ncc2Cl)c1	0.77
3) CN1CCN(Cc2ccc(Nc3ncc(Cl)/c(=N\c4ccccc4[S+](=O)([O-])N(C)C)[nH]3)cc2)CC1	-0.62
4) CC(C)N(CCCNC(=O)Nc1ccc(C(C)(C)C)cc1)C[C@H]1O[C@@H](n2cc(Br)c3c(N)ncnc32)[C@H](O)[C@@H]1O	1.22
5) Cc1ccc([N+](=O)[O-])cc1[S+](=O)([O-])N(C)/N=C/c1cnc2ccc(Br)cn12	-0.38
6) CC1=N[NH]C=C1C2=CC\3=C(S2)C(=O)NC(=N3)\[C@@H]4CC5CCN4CC5	1.37
7) COc1ccc(-c2cc(C(O)C3CCCCN3)c3ccccc3n2)cc1 (centres undefined)	0.87
8) CC/1=C/C[C@]23O[C@@]2(C)CC[C@@H]4[C@H](OC(=O)C4=C)[C@@H]13	1.27
9) CN1CCC(C1CO)C2=C(O)C=C(O)C3=C2O\C(=C/C3=O)C4=CC=CC=C4Cl (centres undefined)	0.52
10) C[C@@H]1O[C@@H](O[C@@H]2C=C3CC[C@@H]4[C@H](CC[C@]5(C)[C@@H](c6ccc(=O)oc6)CC[C@]45O)[C@@]3(C)CC2)[C@H](O)[C@H](O)[C@H]1O	-1.48

For each of the compounds below, note its log10(AC50 viability).
1. COc1cc(C(=O)N2CCC(N3CCN(C)CC3)CC2)ccc1Nc1ncc2c(n1)N(C)c1ccccc1C(=O)N2C
2. C[N]1C=NC=C1C(N)(C2=CC=C(Cl)C=C2)C3=CC\4=C(C=C3)N(C)C(=O)\C=C4C5=CC(=CC=C5)Cl (centres undefined)
3. O=C1NCCc2[nH]c(-c3ccncc3)cc21
4. CCOc1cc(C(=O)N2CCC(N3CCN(C)CC3)CC2)ccc1Nc1ncc2c(n1)N(C1CCCC1)c1ccccc1C(=O)N2C

stdout:
1.22
0.82
0.67
1.27
